System: Bloodstream form of Trypanosoma brucei, strain Lister 427
Assay: Trypanosoma brucei growth inhibition assay (CellTiter-Glo, 24 h)
Assay type: cell-based
Conditions: Trypanosoma brucei; T. Brucei Growth Inibition Assay, class symbols; read-out: T. Brucei GI EC50
pEC50: −log10 of the molar value.
recorded.metric: pEC50

Illustrative cases are given below, each with its answer.
[
  {
    "molecule": "COc1nc2ccccc2cc1-c1cnc([C@@H]2CN(CC3CCOC3)CCN2C(=O)Cn2c(S(C)(=O)=O)nc3ccccc32)[nH]1 (stereo partly shown)",
    "pEC50": "6.30 to 7.00"
  },
  {
    "molecule": "COc1nc2ccccc2cc1-c1cnc([C@@H]2CN(CC3CCOC3)CCN2C(=O)Cc2noc3ccc(F)cc23)[nH]1 (stereo partly shown)",
    "pEC50": "5.30 to 6.00"
  },
  {
    "molecule": "COc1ccc2nc(C(F)(F)F)n(CC(=O)N3CCN(Cc4cscn4)C[C@H]3c3ncc(-c4cc5ccccc5nc4OC)[nH]3)c2c1",
    "pEC50": "> 7.00"
  },
  {
    "molecule": "CO[C@@](C(=O)N1CCN(C)C[C@@H]1c1ncc(-c2ccc3ccccc3c2)[nH]1)(c1ccccc1)C(F)(F)F",
    "pEC50": "5.30 to 6.00"
  }
]

Q: Given the entry COc1ccccc1C(=O)N1CCN(C)CC1c1ncc(-c2ccc3ccccc3c2)[nH]1 (stereo not shown) , report its measured pEC50.
A: 5.30 to 6.00

Q: Given the entry COc1nc2ccccc2cc1-c1cnc([C@@H]2CN(Cc3cncnc3)CCN2C(=O)Cn2c(C(F)(F)F)nc3ccccc32)[nH]1 , report its measured pEC50.
A: > 7.00

Q: Given the entry CCC(=O)CCCN1CCN(S(=O)(=O)c2ccc3ccccc3c2)C(c2ncc(-c3ccc4ccccc4c3)[nH]2)C1 (stereo not shown) , report its measured pEC50.
A: 5.30 to 6.00

###

// values below are reported pEC50
Tested on: Bloodstream form of Trypanosoma brucei, strain Lister 427
Assay: Trypanosoma brucei growth inhibition assay (CellTiter-Glo, 24 h)
Format: cell-based
Details: Trypanosoma brucei; T. Brucei Growth Inibition Assay, class symbols; read-out: T. Brucei GI EC50
pEC50: −log10 of the molar value.

Q: Given the entry COc1ccc2[nH]c(C)c(CC(=O)N3CCN(Cc4ccn(C)n4)CCC3c3ncc(-c4cc5ccccc5nc4OC)[nH]3)c2c1 (stereo not drawn) , report its measured pEC50.
A: > 7.00

Q: Given the entry COc1ccc2[nH]c(C)c(CC(=O)N3CCN(C)CC3c3ncc(-c4ccc5ccccc5c4)n3C)c2c1 (stereo not drawn) , report its measured pEC50.
A: 5.30 to 6.00

Q: Given the entry CCC(=O)CCCN1CCN(C(=O)Cn2ccnn2)C(c2ncc(-c3ccc4ccccc4c3)[nH]2)C1 (stereo not drawn) , report its measured pEC50.
A: 5.30 to 6.00

Q: Given the entry COc1ccc2[nH]c(C)c(CC(=O)N3CCN(CC4CC4)CC3c3ncc(-c4ccc5ccccc5c4)[nH]3)c2c1 (stereo not drawn) , report its measured pEC50.
A: > 7.00

Q: Given the entry COc1ccc2[nH]c(C)c(CC(=O)N3CC(=O)N(C)CC3c3ncc(-c4ccc5ccccc5c4)[nH]3)c2c1 (stereo not drawn) , report its measured pEC50.
A: 6.00 to 6.29

Q: Given the entry COc1nc2ccccc2cc1-c1cnc(C2CN(CC3CCOC3)CCN2C(=O)c2ccc3ncccc3c2)[nH]1 (stereo not drawn) , report its measured pEC50.
A: 5.30 to 6.00

Q: Given the entry COc1nc2ccccc2cc1-c1cnc(C2CN(CC3CCOC3)CCN2C(=O)Cc2nc(-c3ccccc3)oc2C)[nH]1 (stereo not drawn) , report its measured pEC50.
A: 5.30 to 6.00

Q: Given the entry COc1nc2ccccc2cc1-c1cnc([C@@H]2CN(CC3CCOC3)CCN2C(=O)Cn2c(C)nc3cc(C(F)(F)F)ccc32)[nH]1 (stereo partly drawn) , report its measured pEC50.
A: 6.30 to 7.00

Q: Given the entry COc1ccc2cc(C)n(CC(=O)N3CCN(CC4CCOC4)C[C@H]3c3ncc(-c4cc5ccccc5nc4OC)[nH]3)c2c1 (stereo partly drawn) , report its measured pEC50.
A: > 7.00

Q: Given the entry COc1nc2ccccc2cc1-c1cnc([C@@H]2CN(CC3CCOC3)CCN2C(=O)C(C)(C)n2c(C(F)(F)F)nc3ccccc32)[nH]1 (stereo partly drawn) , report its measured pEC50.
A: 5.30 to 6.00

Q: Given the entry COc1nc2ccccc2cc1-c1cnc([C@@H]2CN(C3COC3)CCN2C(=O)Cn2c(C(F)(F)F)nc3ccccc32)[nH]1 , report its measured pEC50.
A: > 7.00

Q: Given the entry CNC(=O)CCCN1CCN(C(=O)Cc2c(C)[nH]c3ccc(OC)cc23)C(c2ncc(-c3ccc4ccccc4c3)[nH]2)C1 (stereo not drawn) , report its measured pEC50.
A: 6.30 to 7.00

Q: Given the entry COc1ccc2nc(C(F)(F)F)n(CC(=O)N3CC[C@@H](NC4CCOC4)C[C@H]3c3ncc(-c4cc5ccccc5nc4OC)[nH]3)c2c1 (stereo partly drawn) , report its measured pEC50.
A: 6.30 to 7.00

Q: Given the entry COc1ccc2[nH]c(C)c(CC(=O)N3CCN(CCCC(N)=O)CC3c3ncc(-c4ccc5ccccc5c4)[nH]3)c2c1 (stereo not drawn) , report its measured pEC50.
A: 6.30 to 7.00

Q: Given the entry CCC(=O)CCCN1CCN(C(=O)Cc2c(C)[nH]c3ccc(OC)cc23)C(c2nnc(-c3ccc4ccccc4c3)o2)C1 (stereo not drawn) , report its measured pEC50.
A: 6.30 to 7.00

Q: Given the entry O=C(Cc1n[nH]c2ccccc12)N1CCN(CC2CC2)CC1c1ncc(-c2ccc3ccccc3c2)[nH]1 (stereo not drawn) , report its measured pEC50.
A: 5.30 to 6.00

Q: Given the entry COc1ccc2nc(C(F)(F)F)n(CC(=O)N3CCN(C4CCS(=O)(=O)CC4)CCC3c3ncc(-c4cc5ccccc5nc4OC)[nH]3)c2c1 (stereo not drawn) , report its measured pEC50.
A: > 7.00

Q: Given the entry COc1nc2ccccc2cc1-c1cnc(C2CN(C3CCOCC3)CCN2C(=O)Cc2c(C)[nH]c3ccc(F)cc23)[nH]1 (stereo not drawn) , report its measured pEC50.
A: 6.30 to 7.00
